Where do the numbers come from? From ChEMBL document CHEMBL1126193.

# System: Leukotriene B4 receptor 1 (Cavia porcellus)
# PROTOCOL DESCRIPTION: Percent inhibition of [3H]-LTB4 binding to guinea pig spleen Leukotriene B4 receptor at the concentration of 10e-5 M

# SMILES DATA, inhibition
data = [
    ("O=C(O)CCCCCCc1cc(-c2ccccc2)cs1", "0%"),
    ("O=C(O)CCCCc1cc(CCCc2ccccc2)cs1", "35%"),
    ("O=C(O)CCCCCCc1csc(CCCc2ccccc2)c1", "10%"),
    ("O=C(O)CCCCCCc1ccsc1CCc1ccccc1", "38%"),
    ("O=C(O)CCCCCC(=O)c1sccc1CCCc1ccccc1", "59%"),
    ("O=C(O)CCCCCCc1cc(CCCc2ccccc2)cs1", "38%"),
    ("O=C(O)CCCCCCc1ccsc1C(=O)CCc1ccccc1", "17%"),
]

---

# PROTOCOL DESCRIPTION: compound was tested for 50% inhibition of LTA4 hydrolase at 2*10e-5M concentration in porcine leukocyte homogenates
# Type: tissue-based, Sus scrofa
pIC50: −log10 of the molar value.
Recorded measurements of pIC50, one per entry

# SMILES DATA, pIC50
data = [
    ("O=C(O)CCCCCCc1cc(Cc2ccccc2)cs1", 5.02),
    ("O=C(O)CCCCCCc1csc(CCCc2ccccc2)c1", 5.82),
    ("O=C(O)CCCCCCc1ccc(CCCc2ccccc2)s1", 5.54),
]

---

# System: Leukotriene A-4 hydrolase (Sus scrofa)
# PROTOCOL DESCRIPTION: Tested for 50% inhibition of LTA4 hydrolase at 2*10e-5M concentration in porcine leukocyte homogenates
Overview of reported inhibition across a group of compounds:

# SMILES DATA, inhibition [%]
rows = [
    ("O=C(O)CCCCc1cc(CCCc2ccccc2)cs1", 0),
    ("O=C(O)CCCCCCc1ccsc1CCCc1ccccc1", 0),
    ("O=C(O)CCCCCCc1sccc1CCCc1ccccc1", 0),
    ("O=C(O)CCCCCCc1cc(Cc2ccccc2)cs1", 70),
    ("O=C(O)CCCCCCc1cc(-c2ccccc2)cs1", 25),
    ("O=C(O)CCCCCCc1csc(CCc2ccccc2)c1", 49),
    ("O=C(O)CCCCCCc1csc(CCCc2ccccc2)c1", 100),
    ("O=C(O)CCCCc1sccc1CCCc1ccccc1", 0),
    ("O=C(O)CCCCCCc1csc(Cc2ccccc2)c1", 68),
    ("O=C(O)CCCCCCc1sccc1Cc1ccccc1", 0),
    ("O=C(O)CCCCCCc1cc(CCCCCc2ccccc2)cs1", 49),
    ("O=C(O)CCCCCCc1sccc1CCCCCc1ccccc1", 9),
    ("O=C(O)CCCCCCc1cc(CCCc2ccccc2)cs1", 42),
]

---

# Test system: Leukotriene B4 receptor 1 (Cavia porcellus)
# PROTOCOL DESCRIPTION: Percent inhibition of [3H]-LTB4 binding to guinea pig spleen Leukotriene B4 receptor at the concentration of 10e-5 M

# SMILES DATA, READING UNIT, inhibition
rows = [
    ("O=C(O)CCCCCCc1sccc1CCCCCc1ccccc1", "%", 39),
    ("O=C(O)CCCCCCc1sccc1Cc1ccccc1", "%", 15),
    ("O=C(O)CCCCCCc1cc(Cc2ccccc2)cs1", "%", 33),
    ("O=C(O)CCCCCCc1cc(CCCCCc2ccccc2)cs1", "%", 31),
    ("Cc1cc(C(=O)CCCCCC(=O)O)c(CCCc2ccccc2)s1", "%", 51),
    ("O=C(O)CCCCCc1cc(CCCc2ccccc2)cs1", "%", 36),
]

---

# System: Leukotriene A-4 hydrolase (Sus scrofa)
# PROTOCOL DESCRIPTION: Tested for 50% inhibition of LTA4 hydrolase at 2*10e-5M concentration in porcine leukocyte homogenates
REPORTED METRIC: inhibition (%)

# SMILES DATA, REPORTED METRIC, READING UNIT, EXPERIMENTAL VALUE
data = [
    ("O=C(O)CCCCCc1cc(CCCc2ccccc2)cs1", "inhibition", "%", 32),
    ("O=C(O)CCCCCCc1ccc(CCCc2ccccc2)s1", "inhibition", "%", 84),
    ("O=C(O)CCCCCCc1ccsc1CCc1ccccc1", "inhibition", "%", 0),
]

---

# Tested on: Leukotriene A-4 hydrolase (Sus scrofa)
# PROTOCOL DESCRIPTION: Tested for Percentage inhibition of LTA4 hydrolase at 2*10e-5M concentration in porcine leukocyte homogenates

# SMILES DATA, inhibition [%]
rows = [
    ("O=C(O)CCCCCCc1sc(-c2ccccc2)cc1CCCc1ccccc1", 0),
    ("O=C(O)CCCCCCc1csc(CCCc2ccc(O)cc2)c1", 100),
    ("O=C(O)CCCCCCc1csc(CCCc2ccc(Cl)cc2)c1", 73),
    ("Cc1cc(CCCCCCC(=O)O)c(CCCc2ccccc2)s1", 0),
    ("COc1ccc(CCCc2cc(CCCCCCC(=O)O)cs2)cc1", 68),
    ("O=C(O)CCCCCCc1ccsc1CCCc1ccc(Cl)cc1", 24),
]
